These data points were gathered from patent US20140249172A1.

# Protocol notes: Blood levels of free naltrexone and free 6-beta-naltrexol following intranasal administration
# Assay type: in vivo, human
# Setup conditions: both sexes, human, in vivo, 2 mg, average of 8 subjects; 120 min; read-out: Naltrexone-free blood level, Avg.

{"Molecule": "O=C1CC[C@@]2(O)[C@H]3Cc4ccc(O)c5c4[C@@]2(CCN3CC2CC2)[C@H]1O5 [Naltrexone, naltrexone]", "concentration at 120 min, ng/mL": 1.94}
